Below, each entry is listed alongside its reported log10 Kdiss.
Organism: Homo sapiens
Test: Binding affinity to human IgG assessed as dissociation rate constant by SPR analysis
Bridge positions count the residues as written; N and C are the ends. Peptide text beside a SMILES is read from it. * marks the point of attachment. NH(4-OH-benzyl) = Oc1ccc(CN*)cc1
Transform log10 | Measure Kdiss | Unit s⁻¹

CC(=O)N[C@@H](CC(=O)O)C(=O)N[C@H]1CSSC[C@@H](C(=O)N[C@H](C(=O)N[C@@H](Cc2ccccc2)C(=O)N[C@@H](Cc2cnc[nH]2)C(=O)NCC(N)=O)[C@@H](C)O)NC(=O)[C@H](Cc2c[nH]c3ccccc23)NC(=O)[C@H](C(C)C)NC(=O)[C@H](CC(C)C)NC(=O)[C@H](CCC(=O)O)NC(=O)CNC(=O)[C@H](CCCCN)NC(=O)[C@H](Cc2cnc[nH]2)NC(=O)[C@H](Cc2ccc(O)cc2)NC(=O)[C@H](C)NC1=O (Ac-DCAYHKGELVWCTFHG-NH2; disulfide 2-12) ... -0.68
CC(=O)N[C@@H](CC(=O)O)C(=O)N[C@H]1CSSC[C@@H](C(=O)N[C@H](C(=O)N[C@@H](Cc2ccccc2)C(=O)NC(Cc2ccccn2)C(N)=O)[C@@H](C)O)NC(=O)[C@H](Cc2c[nH]c3ccccc23)NC(=O)[C@H](C(C)C)NC(=O)[C@H](CC(C)C)NC(=O)[C@H](CCC(=O)O)NC(=O)CNC(=O)[C@H](CC(C)C)NC(=O)[C@H](Cc2cnc[nH]2)NC(=O)[C@H](Cc2ccc(O)cc2)NC(=O)[C@H](C)NC1=O (mixture of isomers) ... -2.49
CC(=O)N[C@@H](CC(=O)O)C(=O)N[C@H]1CSSC[C@@H](C(=O)N[C@H](C(=O)N[C@@H](Cc2ccccc2)C(=O)N[C@@H](Cc2cnc[nH]2)C(=O)NCc2ccc(O)cc2)[C@@H](C)O)NC(=O)[C@H](Cc2c[nH]c3ccccc23)NC(=O)[C@H](C(C)C)NC(=O)[C@H](CC(C)C)NC(=O)[C@H](CCC(=O)O)NC(=O)CNC(=O)[C@H](CCCCN)NC(=O)[C@H](Cc2cnc[nH]2)NC(=O)[C@H](Cc2ccc(O)cc2)NC(=O)[C@H](C)NC1=O (Ac-DCAYHKGELVWCTFH-{NH(4-OH-benzyl)}; disulfide 2-12) ... -0.91
CC(=O)N[C@@H](CC(=O)O)C(=O)N[C@H]1CSSC[C@@H](C(=O)N[C@H](C(=O)N[C@@H](Cc2ccccc2)C(=O)N[C@@H](Cc2ccccc2)C(N)=O)[C@@H](C)O)NC(=O)[C@H](Cc2c[nH]c3ccccc23)NC(=O)[C@H](C(C)C)NC(=O)[C@H](CC(C)C)NC(=O)[C@H](CCC(=O)O)NC(=O)CNC(=O)[C@H](CCCCN)NC(=O)[C@H](Cc2cnc[nH]2)NC(=O)[C@H](Cc2ccc(O)cc2)NC(=O)[C@H](C)NC1=O (Ac-DCAYHKGELVWCTFF-NH2; disulfide 2-12) ... -0.44

Let us examine a further case.
Lab note: CC(=O)N[C@@H](CC(=O)O)C(=O)N[C@H]1CSSC[C@@H](C(=O)N[C@H](C(=O)N[C@@H](Cc2ccccc2)C(=O)NC(Cc2ccccn2)C(N)=O)[C@@H](C)O)NC(=O)[C@H](Cc2c[nH]c3ccccc23)NC(=O)[C@H](C(C)C)NC(=O)[C@H](CC(C)C)NC(=O)[C@H](CCC(=O)O)NC(=O)CNC(=O)[C@H](CCCCN)NC(=O)[C@H](Cc2cnc[nH]2)NC(=O)[C@H](Cc2ccc(O)cc2)NC(=O)[C@H](C)NC1=O (mixture of isomers) gave log10 Kdiss of -1.24
